target: human V1a receptor (Homo sapiens (Human), UniProt P37288); assay: Cellular in vitro assay for determining vasopressin receptor activity (V1a, aequorin luminescence); conditions: CHO cell line transfected with human V1a receptor; [Arg8]-vasopressin at EC50 concentration; read-out: IC50 hV1a
Sequence (P37288 whole entry): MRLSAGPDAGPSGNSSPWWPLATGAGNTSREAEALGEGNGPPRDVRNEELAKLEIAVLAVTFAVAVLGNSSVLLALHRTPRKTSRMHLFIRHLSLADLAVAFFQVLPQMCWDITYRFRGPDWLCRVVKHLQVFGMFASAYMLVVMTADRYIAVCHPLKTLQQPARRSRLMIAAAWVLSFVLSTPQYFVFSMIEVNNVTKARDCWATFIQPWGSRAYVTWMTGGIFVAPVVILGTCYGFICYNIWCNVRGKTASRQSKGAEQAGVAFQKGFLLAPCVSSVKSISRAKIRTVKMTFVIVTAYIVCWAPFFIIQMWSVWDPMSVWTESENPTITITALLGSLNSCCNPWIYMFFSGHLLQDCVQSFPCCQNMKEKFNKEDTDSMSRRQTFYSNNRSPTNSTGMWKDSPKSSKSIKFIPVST
# note: boundary value 3 nM maps to n; IC50 below it maps to y

Recorded results for 5 compounds are shown here.
O=C(CCC(F)(F)F)NC(Cn1c(-c2ccc(Cl)cc2)nn(Cc2ncn(-c3ncccc3Cl)n2)c1=O)C(F)(F)F (single isomer, unassigned) [Example 33]; n
CS(=O)(=O)CC(=O)NC(Cn1c(-c2ccc(Cl)cc2)nn(Cc2ncn(-c3ncccc3Cl)n2)c1=O)C(F)(F)F (single isomer, unassigned) [Example 45]; n
O=C(NC(Cn1c(-c2ccc(Cl)cc2)nn(Cc2ncn(-c3ncccc3Cl)n2)c1=O)C(F)(F)F)C1CC(F)(F)CN1 (stereo not shown); y
O=C(NC(Cn1c(-c2ccc(Cl)cc2)nn(Cc2ncn(-c3ncccc3Cl)n2)c1=O)C(F)(F)F)C1CCCN1 (stereo not shown); y
CC(C)(C)OC(=O)NC1(C(=O)NC(Cn2c(-c3ccc(Cl)cc3)nn(Cc3ncn(-c4ncccc4Cl)n3)c2=O)C(F)(F)F)CC1 (racemic); n

Does this compound meet the criterion IC50 < 3 nM? O=C(CC(F)(F)F)NC(Cn1c(-c2ccc(Cl)cc2)nn(Cc2ncn(-c3ncccc3Cl)n2)c1=O)C(F)(F)F (racemic) y

Hi there! Is IC50 for O=C(NC(Cn1c(-c2ccc(Cl)cc2)nn(Cc2ncn(-c3ncccc3Cl)n2)c1=O)C(F)(F)F)[C@@H]1CC(C(F)(F)F)CN1 (stereo partly shown) below 3 nM, do you know? n
